- Assay system: PqsR (Pseudomonas aeruginosa, UniProt Q9I4X0)
- Construct: expressed in transfected cells; host or cells: E. coli DH5α carrying plasmid pEAL08-2
- Sequence (Q9I4X0 whole entry): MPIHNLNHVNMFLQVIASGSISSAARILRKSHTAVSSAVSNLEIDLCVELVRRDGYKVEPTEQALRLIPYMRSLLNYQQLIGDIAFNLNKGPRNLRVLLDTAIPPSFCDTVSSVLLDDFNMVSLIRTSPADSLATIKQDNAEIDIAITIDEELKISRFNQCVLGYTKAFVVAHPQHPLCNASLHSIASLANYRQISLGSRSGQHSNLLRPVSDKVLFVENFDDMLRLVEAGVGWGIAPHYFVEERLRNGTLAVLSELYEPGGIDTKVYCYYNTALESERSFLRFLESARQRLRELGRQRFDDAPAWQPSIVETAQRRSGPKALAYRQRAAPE
- Experiment: cell-based
- Conditions: read-out: Inhibition of PqsR stimulation induced by 50 nM PQS in the presence of test compd. (full inhibition = 1.00)
Quantity kind: inhibition at 5 µM (%)
API: value field is a number in %; no unit string.

Ask: Entry CCCCCCCc1[nH]c2ccccc2c(=O)c1C(=O)OCC [Compound 4] has what inhibition at 5 µM?
Reply: 32

Ask: Same read-out for CCCCCCCc1[nH]c2ccncc2c(=O)c1C(=O)O [Compound 7] ?
Reply: 20

Ask: Now the same for CCCCCCCc1[nH]c2ccccc2c(=O)c1[N+](=O)[O-] [Compound 9, 2-heptyl-3-nitroquinolin-4(1H)-one]
Reply: 17

Ask: Field entry: CCCCCCCc1[nH]c2ccc([N+](=O)[O-])cc2c(=O)c1CO [Compound 1]
Reply: 100

Ask: Lookup CCCCCCCc1[nH]c2ccc([N+](=O)[O-])cc2c(=O)c1C(=O)O [Compound 12]
Reply: 34

Ask: Also, CCOCCCCc1[nH]c2ccc([N+](=O)[O-])cc2c(=O)c1C(=O)OCC [Compound 3] please.
Reply: 27
